# Assay explanation: Cytotoxicity against human HOG.R5 cells infected with HIV-1 3B
# Format: cell-based
Parameter measured: CC50 (µM)

{"columns": ["Mol", "Quantitative result"],
 "data": [
  ["COc1cc(OC)c(C(=O)/C=C/c2ccc(O)cc2)c(OC)c1", 24.4]
]}

Hello, the source for this data is ChEMBL document CHEMBL3120086, in case you need it.
